Where do these numbers come from? They come from the supplement of paper PMC9170038.

system: K4 kissing-loop RNA reporter; experiment: apparent KD of K4 kissing-loop reporter; higher = weaker reporter binding; conditions: Eterna round: R107; input ligand: tryptophan 2.4 mM
readout: apparent KD of K4 kissing-loop reporter (nM)
Please reply with the bare figure in nM and do not write the unit itself.

Request: Name the recorded apparent KD of K4 kissing-loop reporter for UGGAGUUGACGAAAAGUCAACUCCUGAGAUACCAGUGACGAAAGUCACCCUUGGCAGCUCACUGGCAGUGAUGUUGCACGAUAAA [KL-SSTheo-A1] .
Response: 101

Request: What measured apparent KD of K4 kissing-loop reporter goes with AAGCAUUCUUCGGAAUGCAGACCCGCUGAGGAGGAUAUGACGAAAGUCAGAAGGCCUCAGUGAUGUUGAGGCCUCCUCAAUGGUC [Omei KL FMN A Exc A v1] ?
Response: 171

Request: GET /values?readout=apparent KD of K4 kissing-loop reporter&item= AGGGAUGUUAAAGGAUAUAGAAAGUGAUGUUAGAAAGUGAGUGAUGUUGAUGUAAGUGAUGUUAUGUUAGAAGGUUAACAAAACG [ab]
Response: 170

Request: I would be grateful if you could share the reported apparent KD of K4 kissing-loop reporter for AAUUGGGACGAAGGAUAUUGUCGGCCAUGUACGAGGUCCGGAUGUCAUGACUGUUAGUGAUGUUAACAAGAAGGUCGAGGGAGAC [theeternabot_exclusion_KL_FMN_B_25] .
Response: 86.3

Request: Consider the sequence shown here: UCGAAAUGCGACUCCUAGUUACACCGGGAAGGAGCGUGGAUAACCGCAGGUAGGUCGCCCGGAAGCCGGACCAGUGAUGUUGGUC [Exclusion Arginine A Gf 28] What is its recorded apparent KD of K4 kissing-loop reporter?
Response: 155

Request: Value lookup for apparent KD of K4 kissing-loop reporter; key = GUGCGCGCGGCGGCCGCCACUCGCAUGAGAGUGAUGUUCUCACCGUGACCGUAAGGUCGCGGUGUGAGGACCGGGCCGGGCUGCG [#2 Same State - Tryptophan B Attempt #24 (HarryS)]
Response: 270

* * *

test system: MS2 coat protein; assay: apparent KD of MS2 coat protein; designed switch direction (-1 OFF switch, 1 ON switch): -1; higher = weaker reporter binding; conditions: input ligand: none
Returns one of condition met or condition not met; condition met when apparent KD of MS2 coat protein is >= 50 nM.

Request: Is apparent KD of MS2 coat protein for CCAUUCAGAGGAUAUGCGCAUAAAUAAAACUUUUUUUUUUAACAUGAGGAUCACCCAUGUAGAAGGCUGUAACC [Ex2 #45] (Eterna round: R97, puzzle: Exclusion 2) at or above 50 nM?
Response: condition not met

Request: Reported apparent KD of MS2 coat protein reaches at least 50 nM for CUAGCUUCGGCUAGUACAAGCUUUUUGCUCGUCUUAUUAACAUGAGGAUCACCCAUGUUAAUGAGACCUCAUGUAUU [Sensor v3 - turn-off variant 2 - 9] (Eterna round: R96, puzzle: Sensor v3, turn-off variant 2) ?
Response: condition not met

Request: Is it the case that CCCGCGGGCGCAGGAUAUACAUGAGGAUCACCCAUGUGCCGCGCAAGCGGCAGAGCGGACAACGGGUAGAAGGGCGCCCGCGGG [first try] (Eterna round: R96, puzzle: Exclusion NG 2) has apparent KD of MS2 coat protein reaching or exceeding 50 nM?
Response: condition met

Request: # bool: apparent KD of MS2 coat protein of GUACUACAUGAGGAUCACCCAUGUCAGGAUAUUUGAAUUUCAUCAAAAGAUGAAAUUCGGAGAAGGGACAGUAC [Omei Ex1 A7] (Eterna round: R97, puzzle: Exclusion 1) >= 50 nM
Response: condition not met

Request: Evaluate CUAACAUGCUGGUGAUCAUACAUGAGGAUCACCCAUGUAACAAGCUUUUUGUUCGUCUUAUAAGAUUACUAGUAUGU [Stov1/10-B3] (Eterna round: R97, puzzle: Sensor, turn-off variant 1) : apparent KD of MS2 coat protein at minimum 50 nM?
Response: condition met

Request: Could you please find out whether AAUAUUAGAGGAUAUGCACUUGCACUAACGAAAUCCUCACCACAUGAGGAUCACCCAUGUAGAAGGCUGGUGGU [Eternabot (L2) Solution 65] (Eterna round: R97, puzzle: Exclusion 2) has apparent KD of MS2 coat protein that meets 50 nM or exceeds it?
Response: condition met

Request: Form field: apparent KD of MS2 coat protein at least 50 nM? Entry: UUAAAUCAUGUAGGAUAUGCGUGGCGAAGCUAUGCAGAAGGACAUGAGGAUCACCCAUGUGCUUCCGUCUGCGUACAGAUGGAA [JL Eng1 1.08 mod 3] (Eterna round: R96, puzzle: Exclusion NG 1)
Response: condition met

Request: Determine whether this sequence has apparent KD of MS2 coat protein no lower than 50 nM: CCUCAGUCACAGGAUAUGCUCAUCUAAUGAUGAGCAGAAGGGUGAACAUGAGGAUCACCCAUGUUUACGGUGGU [Omei Ex6 E8] (Eterna round: R97, puzzle: Exclusion 6)
Response: condition met

Request: Decide: apparent KD of MS2 coat protein of AUGCGUGGCUAGGAUAUCGAGGAAUUUAGCCAGCGAGAAGGAGCCACAUGAGGAUCACCCAUGUGGUGAACCUC [jl-ex6-4.62 ViennaUCT mod] (Eterna round: R97, puzzle: Exclusion 6) >= 50 nM?
Response: condition not met

Request: Given GACCUCCCUGUAAGGAUAUCCAUGCAUCAAAGCAUGGAGAAGGUACAUGAGGAUCACCCAUGUCACCCGCGUUA (Eterna round: R97, puzzle: Brourd's mod of Exclusion 4) , state whether its apparent KD of MS2 coat protein is at least 50 nM.
Response: condition not met

* * *

Provide the recorded apparent KD of K4 kissing-loop reporter for the entries that follow.
system: K4 kissing-loop RNA reporter; experiment: apparent KD of K4 kissing-loop reporter; higher = weaker reporter binding; settings: Eterna round: R107; input ligand: FMN 200 uM;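 also: bound reporter read as fluorescence of individual clusters on recovered sequencing chips by microscopy, with normalized cluster intensities fitted with a binding model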
Entry rule: numbers only, all in nM.

Request: Record request: apparent KD of K4 kissing-loop reporter value, item GUUAUGGACCUGGAUACCAGCUGGUACAAGGUCGGUCUACAUGAGUGAUGUUCAUGUGUCAGCCCUUGGCAGCCAGCAACCGGCA [KL-XTheo-B10]
Response: 90.3

Request: Which apparent KD of K4 kissing-loop reporter value belongs to AUUUAAUUAACUGAUACCAGACUUUUUGUUUUGUUUAUUACUAGUGAUGUUAGUGUUUCUGUCCCUUGGCAGCAGAAUCUACUUA [JR_ExcTheophyB_Sub019] ?
Response: 172

Request: # query: apparent KD of K4 kissing-loop reporter of entry GCCGUACGCAUGGAUACCAGCAGAACUGCCCUCCCAGUGAUGUUGGGAGGAUCUUUCCUUUGCCCUUGGCAGCCAUGCGUACGGC
Response: 126

Request: Query (sequence): UACUAUAGUGAUGUUAUAGAUAAACCAGAUACCAGUGUGACAUAACACCCUUGGCAGCUGAUAAGGGAACAUAUGAAAACAUAUG [AstroSSTHeAED5.17] ; field requested: apparent KD of K4 kissing-loop reporter
Response: 146

Request: Entry GGUGACAACCAGAGGUGAUGUAUAGUAUCGCGAGGACCGGUACGGCCGCCACUCGUGAAGAGAAAGGAGUGAUGUUCCGUAAUGG [Kazoo C7] has what apparent KD of K4 kissing-loop reporter?
Response: 287

Request: Name the reported apparent KD of K4 kissing-loop reporter value associated with the sequence GAAUAAUAACAUGAGUGAUGUUCAUGUAAACGAGGACCGGUACGGCCGCCACUCGAACCUCAUGUAAGCCGUACCAAUAACAAUA [KL-XTryp-A4 #analogue]
Response: 115

* * *

tested on: MS2 coat protein; experiment: apparent KD of MS2 coat protein, switch ON state; designed switch direction (-1 OFF switch, 1 ON switch): 1; higher = weaker reporter binding; conditions: FMN input: 0 or 200 uM; Eterna round: R93 (includes R88 designs)
readout: apparent KD of MS2 coat protein (nM)
The reply should contain only the number, in nM.

Request: Query (sequence): CAUCAUGCGUCUAAGGAUAUGUCUCACAAGACAUGAGGAUCACCCAUGUAGAAUAAAUAAAUGAUGCAGAAGGUGGAGCGCAUGC [Erzausis] ; field requested: apparent KD of MS2 coat protein
Response: 53.2

Request: Can you share its apparent KD of MS2 coat protein? I mean this sequence: AAAAAAAAAAGUGAGGAUAUGUGAUCGGUGACAUGAGGAUCACCCAUGUGAGGCCUUCGGGCCGGACAGAAGGCACAAAAAAAAA [Same State 2-X]
Response: 78.1

Request: For the sequence AUAAAACAUGAGGAUCACCCAUGUAAAAAUAUGGGAGGAUAUGCGAAAUAAAAUAAAUAAGCAGAAGGCCUAAAAA [SS! MT 19] , what apparent KD of MS2 coat protein is on record?
Response: 11.9

Request: Which apparent KD of MS2 coat protein value belongs to AUUACAUCUAGUUAGGAUAUCAGAUGUAAGACAUGAGGAUCACCCAUGUCCUAAGAAUAGGUAACUGAGAAGGAACAGGGAGUAU [JR_SS002_Sub418] ?
Response: 23.4

Request: Item under review: AGGAAACAUGAGGAUCACCCAUGUAAAAAAAUGGGAGGAUAUCCGCAUUAAUUAAAUGAAGGAGAAGGCCUAAAAA [71%, Same state of confusion2, 5] . Reported apparent KD of MS2 coat protein?
Response: 21.6

Request: Could you share which apparent KD of MS2 coat protein value was measured for AACAUACAUGAGGAUCACCCAUGUUAGGUGGGACUAGGAUAUCAAUCGAAAGUGUUAUAAUGAGAAGGAGUAUAAA [JR_SS001_Sub015] ?
Response: 127

Request: For the sequence shown here, UAUCAUUACACGAAGGAUAUCGAUAAUUGAACAUGAGGAUCACCCAUGUGCCAUUCUUUACAGUUCGAGAAGGUCGAGGGUGAAG [JR_SS002_Sub708] , give the reported apparent KD of MS2 coat protein.
Response: 72.7

Request: If you can, please state the reported apparent KD of MS2 coat protein value of AAAAAACAUGAGGAUCACCCAUGUAGAAAUAUGGAAGGAUAUGGAAACACGAAAGUGAAACCAGAAGGUCCAAAAG [77%, Mat - Mod of Eli, 9] .
Response: 18

Request: Can you share its apparent KD of MS2 coat protein? I mean this sequence: AAUAUACAUGAGGAUCACCCAUGUUUUAAUAGCUGAGGAUAUACGGGUGAAAAUAGCAUAGUAGAAGGCGGGUGUA [SameState1 Malc#9]
Response: 92.2

Request: GET /values?readout=apparent KD of MS2 coat protein&item= AAAUAAAUGACUGAGGAUAUAUCGAUGUGUACAUGAGGAUCACCCAUGUGUGAAUAAAAAGGGUGGUAGAAGGUAGUCAACAAAC [Mod 17 of Pariah 4 by Hyphema in Round 1]
Response: 76.9

Request: Name the reported apparent KD of MS2 coat protein value associated with the sequence AUAUGAGCUAUGGAGGAUAUCCAUAACAAGACAUGAGGAUCACCCAUGUAAGAAAGAAAAGAAUGGGAGAAGGCCAUAGCUCAAU [SS 2 M46]
Response: 37.9

Request: Reported apparent KD of MS2 coat protein, sequence AGAAAACAUGAGGAUCACCCAUGUGAUAAUAUGGGAGGAUAUACGGAGACGAAAGUCGACGUAGAAGGCCUAAAGA [Garnet 49] : ____
Response: 42.9

Request: I am curious: what apparent KD of MS2 coat protein value has been reported for GAGUACAUAGUACAGGAUAUAUGAAUAGUUACAUGAGGAUCACCCAUGUGCAUUUAUAUGCGCACAUAGAAGGGUGGUAGGUAUC [Mat - Same state - Malcolm Mod - D127] ?
Response: 38.8

Request: Recorded apparent KD of MS2 coat protein for AAGAGACAUGAGGAUCACCCAUGUAGGAUUAUGGGAGGAUAUACAAAGACGAGAGUCAGAGUAGAAGGCCUAGGAG [salish99-ss1-131(!)] , please?
Response: 23.2

Request: Query (sequence): AUAUGAGCUAUUGAGGAUAUCCAUAACAAGACAUGAGGAUCACCCAUGUAAUCAAAACAAUAAUGGGAGAAGGCAAUAGCUCAAU [SS 2 M48] ; field requested: apparent KD of MS2 coat protein
Response: 36.7

Request: Which apparent KD of MS2 coat protein is listed for AACAAUCUAUCUGAGGAUAUCAUGAAAAAGACAUGAGGAUCACCCAUGUACCAGGAAACUGGUUAUGAGAAGGCAGAUAGAUUGA [SS2: 1116] ?
Response: 9.32

Request: Data request, read-out apparent KD of MS2 coat protein, for UUUAGCUGCGGGCAGGAUAUGUAUUAAAAUACAUGAGGAUCACCCAUGUGCAGGUGUAACACCUGACAGAAGGGCCAAUCGCGGC [Bequre]
Response: 25

Request: Name the recorded apparent KD of MS2 coat protein for AAAAAACAUGAGGAUCACCCAUGUGAAAAUAUGGGAGGAUAUACAAAGACGAAAGUCAAAGUAGAAGGCCUAAAAA [Mat - Same State 1 - Eli mod - D86] .
Response: 18.4

Request: Quick check: apparent KD of MS2 coat protein of AAAAAACAUGAGGAUCACCCAUGUGAGAACACGGGAGGAUAUACGAAGACGAAAGUCGAAGUAGAAGGCCUAAAAA [Garnet 82] ?
Response: 21.2

Request: Fill in: apparent KD of MS2 coat protein of GGGAGACAUGAGGAUCACCCAUGUGAGAAGAGGCGAGGAUAUCGAAAGAAAGAAGAGAAACGAGAAGGCGCGAGUC [salish99-SS1-062] is ___
Response: 45.2

Request: Item CAUAGACAUGAGGAUCACCCAUGUAGAAUUAUGGGAGGAUAUACAAAGACGAGAGUCAGAGUAGAAGGCCUAGGAU [salish99-ss1-162] has what recorded apparent KD of MS2 coat protein?
Response: 24.1

Request: What value of apparent KD of MS2 coat protein has been reported for the following sequence? GUGUAUAGCCUCGAGGAUAUCCUGUAAUGCACAUGAGGAUCACCCAUGUAUGAGCGAGUUUUUUGGGAGAAGGCGAGUUAUCGGU [JR_SS002_Sub1709]
Response: 12.9

Request: Given the sequence AGAAAUAAAAGAGAGGAUAUCUUAAAGAAAACAUGAGGAUCACCCAUGUAAAAGAAAAUAAAAUGGGAGAAGGCUCAUAAUAAAG [JL Skelter Mod 4 In the Red] , what is its reported apparent KD of MS2 coat protein?
Response: 151

Request: What does the data say about its apparent KD of MS2 coat protein? Entry: GGCAAACAUGAGGAUCACCCAUGUCAGUGCUAUCAAGGAUAUGGGAUGACGGAAGGUCGGCCAGAAGGUGAGAAAG [Quededma]
Response: 233
